Tested on: M14 melanoma
procedure.details: NCI-60 one-dose screen, 48 h
condition.parameters: 10 µM unless noted
About 83,000 compounds went through this panel and 20% of them were active in at least one assay; those are over-represented in the sample as a whole. Activity calls are given as the source filed them. Rule for the calls: active = growth percent below 10; inactive = the rest.
Your reply should match one of these outcome classes. Y = active, N = inactive

Any idea what this test logged for COc1ccc2c(=O)c(OC)c(-c3cc(OC)c(OC)c(OC)c3)oc2c1 ?
N

What do you have for C(=C1c2ccccc2-c2ccccc21)c1ccccn1 ?
N

What do you have for Fc1ccc(-c2nn3c(-c4cc(C(F)(F)F)cc(C(F)(F)F)c4)nnc3s2)cc1 ?
N

What do you have for c1ccc(-c2oc(-c3ccccc3)c3ccccc23)cc1 ?
N

What do you have for O=C1CSC(c2ccccc2O)N1c1nnc(Cn2ccnc2)o1 (configuration not stated) ?
N

What do you have for COc1cc(/C=C/c2cc(/C=C/c3ccc(O)c(OC)c3)n(C(=O)c3ccc(Cl)cc3)n2)ccc1O ?
Y

What do you have for O=C(CC(C(=O)c1ccccc1)N1CCN(Cc2ccccc2)CC1)c1ccccc1 (configuration not stated) ?
N

What do you have for CNc1nc(NC2CCCC2)nc(Sc2ccc(OC)cc2)n1 ?
N

What do you have for COc1cccc(C=Nc2cc(C(C)C)c(O)cc2C)c1O ?
N

What do you have for COc1cc(/C=N/NC(=O)c2ccc(C(F)(F)F)nc2Nc2ccc(Cl)cc2C)ccc1O ?
N

What do you have for C[C@H](C(=O)N[C@@H](Cc1ccc(-c2ccccc2)cc1)C(=O)NC1CC(C)(C)N(C)C(C)(C)C1)c1ccc(-c2ccccc2)c(F)c1 ?
Y

What do you have for Cc1cc(Cl)ccc1Nc1nc(C(F)(F)F)ccc1C(=O)N/N=C/c1ccc(Cl)cc1 ?
Y

What do you have for COc1ccc(CNC(=O)c2c(C)n([O-])c3cc(F)c(F)cc3[n+]2=O)cc1 ?
N

What do you have for C(=C1c2ccccc2-c2ccccc21)c1ccncc1 ?
N

What do you have for N=C1c2nc3n(c2C(=O)c2nc4n(c21)CCCCC4)CCCCC3 ?
N

What do you have for O=C1c2cc3c(cc2-c2c1c1ccc(Cl)cc1c(=O)n2CCCNCCO)OCO3 ?
Y

What do you have for Cc1ccc(C2=NNC(c3sc(Cl)nc3Cl)C2)cc1 (configuration not stated) ?
N

What do you have for COc1cc(/C=C/C(=O)CC(=O)/C=C/c2ccc(OC(=O)CCNC34CC5CC(CC(C5)C3)C4)c(OC)c2)ccc1OC(=O)CCNC12CC3CC(CC(C3)C1)C2 ?
N

What do you have for Cc1nn(-c2ccccc2)c2nc(N)c(C3=NCCO3)nc12 ?
N

What do you have for COc1ccc2ncccc2c1Cc1c(OC)ccc2ncccc12 ?
N

What do you have for COc1cccc(N2CCN(CC(=O)N3CCN(c4nnc(-c5ccc(Cl)cc5)c(-c5ccc(Cl)cc5)n4)CC3)CC2)c1 ?
N

What do you have for CNNc1ncnc2c1cnn2-c1ccc(S(N)(=O)=O)cc1 ?
N

What do you have for O=C1C(=O)c2c(nc3ccc(Cl)cn23)-c2ccccc21 ?
Y

What do you have for COc1cc(/C=C\C(C)=N\Nc2ccccc2)ccc1O ?
N

What do you have for O=C(Nc1ccccc1)c1cc(-n2cnc([N+](=O)[O-])c2)cc(-n2cnc([N+](=O)[O-])c2)n1 ?
N

What do you have for O=C(Nc1ccccc1S)c1ccccc1 ?
N

What do you have for CCOC(=O)c1cnc2c(C)cc(C)cc2c1NCCCN(C)C ?
N

What do you have for COc1ccccc1-n1c(-c2ccc(O)cc2C)cn2c3c(=O)[nH]c(=O)n(C)c3nc12 ?
N

What do you have for CCC(=O)Nc1cc2c(cc1Cl)-c1ccccc1C2 ?
N

What do you have for CCCCc1ccc(C(N)=O)nc1 ?
N

What do you have for Nc1ccc2c(c1)C(=O)c1cc(Cl)c(Cl)cc1-2 ?
N

What do you have for CCOC(=O)c1sc(NC(=O)COc2cccc(/C=C3\Cc4ccc(Cl)cc4C3=O)c2)nc1C ?
N

What do you have for CCOC(=O)C1C(=O)NC(C(=O)OCC)(C(=O)OCC)C1CC (configuration not stated) ?
N

What do you have for CCCCc1n(Cc2ccc3ccccc3c2)cc[n+]1Cc1ccc2ccccc2c1 ?
Y

What do you have for O=C(/C=C/c1ccc(C(F)(F)F)cc1)c1ccc(Nc2nc(NCCO)nc(NCCO)n2)cc1 ?
N

What do you have for COc1ccc(OC)c(CCn2cncc2-c2c[nH]c3cc(Br)ccc23)c1 ?
N

What do you have for O=C(NC1CCCCC1)c1ccc(Nc2ncnc3c2cnn3-c2ccccc2)cc1 ?
N

What do you have for Cc1ccc(C(=O)Cc2ccccc2)c(O)c1 ?
N

What do you have for Fc1ccccc1C1c2ccccc2-c2nccn21 (configuration not stated) ?
N

What do you have for O=c1c2c(=NCCCN3CCCC3)cc3c(=O)n(CCCN4CCCC4)c(=O)c4c(NCCCN5CCCC5)cc(c(O)n1CCCN1CCCC1)c2c4-3 ?
Y

What do you have for Cc1cc(=O)oc2cc(OCCn3c(C)nn(-c4ccc(Cl)cc4)c3=O)ccc12 ?
N

What do you have for CCSc1nc(Nc2ccc(S(=O)(=O)Nc3ccon3)cc2)c(C#N)c(-c2cccc(Br)c2)n1 ?
N

###

Tested on: HCT-15 colon
procedure.details: NCI-60 one-dose screen, 48 h
condition.parameters: 10 µM unless noted
Compounds without any hit were thinned out: in the full panel of roughly 83,000, 20% have a hit. Calls of active or inactive are those of the source. Rule for the calls: active = growth percent below 10; inactive = the rest.
Your reply should match one of these outcome classes. yes = active, no = inactive

Any idea what this test logged for COc1cccc(-c2nc(-c3ccc(N)cc3)co2)c1 ?
no

What do you have for O=C(Nc1ccccc1S)c1ccccc1 ?
no

What do you have for O=C1c2cccc3c([N+](=O)[O-])ccc(c23)C(=O)N1CCCCl ?
yes

What do you have for O=C(C(=O)c1cc(Br)ccc1O)c1cc(Br)ccc1O ?
no

What do you have for COc1ccc(NC(=O)c2ccc(-c3ccccc3)cc2)c(C(N)=O)c1 ?
no

What do you have for CCOC(=O)c1sc(NC(=O)COc2cccc(/C=C3\Cc4ccc(Cl)cc4C3=O)c2)nc1C ?
no

What do you have for N#Cc1ncc(-c2ccc(C(F)(F)F)cc2)c(NC2CCCCCC2)n1 ?
no

What do you have for N#Cc1c(-c2ccc(F)cc2)n2c(nc1=O)SC(=O)C2=O ?
no

What do you have for O=C1/C(=C/c2ccccc2O)C(=S)SN1Cc1ccco1 ?
no

What do you have for COc1cc(C2=NN(C=O)C(c3cccc(Nc4ccnc5cc(Cl)ccc45)c3)C2)cc(OC)c1OC (configuration not stated) ?
no

What do you have for CC1c2ccccc2-c2ccccc2N1C (configuration not stated) ?
no

What do you have for COc1cc(/C=C/C(=O)CC(=O)/C=C/c2ccc(OC(=O)C3C4CC5CC(C4)CC3C5)c(OC)c2)ccc1OC(=O)C1C2CC3CC(C2)CC1C3 (configuration not stated) ?
no

What do you have for O=C(Nc1ccc(Cl)cc1)Nc1nc2ccc(OC(F)(F)F)cc2o1 ?
no

What do you have for O=C(c1ccccc1)c1ccc(Oc2ccc([N+](=O)[O-])cc2[N+](=O)[O-])cc1 ?
yes

What do you have for COc1ccc2cc(C3=CC(=O)CCC3)ccc2c1 ?
no

What do you have for OCCN1CCN(CCCN2c3ccccc3Sc3ccc(C(F)(F)F)cc32)CC1 ?
no

What do you have for Nc1ccc2c(c1Br)Cc1ccccc1-2 ?
no

What do you have for NS(=O)(=O)c1ccc(-n2ncc3c(SCc4ccccc4)ncnc32)cc1 ?
no

What do you have for N/C(=N\c1nc2ccccc2s1)NC(=O)Nc1ccccc1Cl ?
no

What do you have for CNCCCn1c2c(c3ccc(F)cc3c1=O)C(=O)c1cc(OC)cnc1-2 ?
yes

What do you have for CC(C)CC1NC(=O)C(CCCN)NC(=O)C(C(C)C)NC(=O)C2CCCN2C(=O)C(Cc2ccccc2)NC(=O)C(CC(C)C)NC(=O)C(CCCN)NC(=O)C(C(C)C)NC(=O)C2CCCN2C(=O)C(Cc2ccccc2)NC1=O (configuration not stated) ?
yes

What do you have for CCCCc1n(Cc2ccc3ccccc3c2)cc[n+]1Cc1ccc2ccccc2c1 ?
no

What do you have for COc1ccc(-c2cc(-c3cccnc3)nc(S(=O)(=O)CC(=O)Nc3ccc(C)cc3)c2C#N)cc1OC ?
no

What do you have for CC(=O)c1ccc(NS(=O)(=O)c2ccc([N+](=O)[O-])cc2)cc1 ?
no

What do you have for Cc1ccc(/C=C(/C#N)n2nnc3ncccc32)cc1 ?
yes

What do you have for CC(C)Cn1cnc2c(NCn3nc(-c4cc(Cl)cc(Cl)c4Cl)n(/N=C/c4ccc(Cl)cc4)c3=S)nc3ccccc3c21 ?
no

What do you have for COc1cccc(/C=N/Nc2nc3ccccc3s2)c1OC ?
no

What do you have for CCCCCc1c(C)[nH]c(/C=C2\N=C(c3ccc[nH]3)C=C2Oc2ccccc2)c1C ?
yes

What do you have for CCc1ccc(-c2nc(SCC(=O)NC3CCCCC3)n[nH]2)cc1 ?
no

What do you have for Nc1nc(SCc2cccnc2)c2ncn(C3OC(CO)C(O)C3O)c2n1 (configuration not stated) ?
no

What do you have for COc1cccc(CCN2C(=O)CCC3=C2CCC3=O)c1 ?
no

What do you have for Nc1nc(Nc2ccccc2SSc2ccccc2Nc2nc(N)nc(C(Cl)(Cl)Cl)n2)nc(C(Cl)(Cl)Cl)n1 ?
no

What do you have for COc1cc(/C=N/NC(=O)c2ccc(C(F)(F)F)nc2Nc2cc(Cl)ccc2C)cc(OC)c1OC ?
no

What do you have for C[C@@H]1CN(c2nc3c(cc2F)c(=O)c(C(=O)O)cn3C(C)(C)C)C[C@H](C)N1 ?
no

What do you have for CSc1nc(N)c2c(n1)N(C)C=NS2(=O)=O ?
no

What do you have for COc1ccc(C(=O)/C=C/c2cccc(Nc3ccnc4cc(Cl)ccc34)c2)cc1 ?
no

What do you have for c1ccc(-c2n(Cc3ccc4ccccc4c3)cc[n+]2Cc2ccc3ccccc3c2)cc1 ?
no

What do you have for NC(=O)NC1(C(=O)O)CCCC1 ?
no

What do you have for O=C1Nc2ccc(Cl)cc2[C@@](C#CC2CC2)(C(F)(F)F)O1 ?
no

What do you have for O=Cc1ccccc1C(=O)O ?
no

What do you have for Cc1ccc(OCC(=O)Nc2ccc(Oc3ccccc3)cc2)c([N+](=O)[O-])n1 ?
no

What do you have for O=C(CSc1nnc(-c2cc(-c3ccccc3)nc3ccccc23)o1)c1ccc(Br)cc1 ?
no
